Overview of reported inhibition at 10 µM across a group of compounds:
# Tested on: HCC-2998
# experimental_protocol: NCI-60 anticancer screening (SRB)
# Type: cell-based
# test_context: Homo sapiens; HCC-2998, colon cancer; one dose 10 μM; read-out: Growth Inhibition Percentage (GI %)
observation_type: inhibition at 10 µM (%)

| compound | system | observation_type | measured_number |
| --- | --- | --- | --- |
| CCOC(=O)C1=C(N)N(c2ccccc2)C2=C(C(=O)CC(C)(C)C2)C1c1cccc(Cl)c1Cl (racemic) [10a] | HCC-2998 | inhibition at 10 µM | 13 |
| CCOC(=O)C1=C(N)N(c2ccc(Cl)cc2)C2=C(C(=O)CC(C)(C)C2)C1c1cccc(Cl)c1Cl (racemic) [10b] | HCC-2998 | inhibition at 10 µM | 18 |
| CCOC(=O)C1=C(N)N(c2ccc(Cl)cc2)C2=C(C(=O)CC(C)(C)C2)C1c1ccccc1OC (racemic) | HCC-2998 | inhibition at 10 µM | 38 |
| CCOC(=O)C1=C(N)N(c2ccc(Cl)cc2)C2=C(C(=O)CC(C)(C)C2)C1c1ccc(Cl)cc1Cl (racemic) [10d] | HCC-2998 | inhibition at 10 µM | 23 |

---

# Tested on: HCT-15
# experimental_protocol: NCI-60 anticancer screening (SRB)
# Assay type: cell-based
# test_context: Homo sapiens; HCT-15, colon cancer; one dose 10 μM; read-out: Growth Inhibition Percentage (GI %)
Overview of reported inhibition at 10 µM across a group of compounds:
observation_type: inhibition at 10 µM (%)

| compound | unit_text | value_modifier | measured_number |
| --- | --- | --- | --- |
| CCOC(=O)C1=C(N)N(c2ccc(Cl)cc2)C2=C(C(=O)CC(C)(C)C2)C1c1ccccc1Cl (racemic) [6c] | % | = | 62 |
| CCOC(=O)C1=C(N)N(c2ccc(C)cc2)C2=C(C(=O)CC(C)(C)C2)C1c1ccccc1Br (racemic) [6e] | % | = | 42 |
| CCOC(=O)C1=C(N)N(c2ccc(Cl)cc2)C2=C(C(=O)CC(C)(C)C2)C1c1ccccc1Br (racemic) [6f] | % | = | 53 |
| CCOC(=O)C1=C(N)N(c2ccccc2)C2=C(C(=O)CC(C)(C)C2)C1c1cccnc1 (racemic) [12d] | % | < | 10 |
| CCOC(=O)C1=C(N)N(c2ccccc2)C2=C(C(=O)CC(C)(C)C2)C1c1ccc(Cl)cc1Cl (racemic) [10c] | % | = | 86 |
| CCOC(=O)C1=C(N)N(c2ccc(Cl)cc2)C2=C(C(=O)CC(C)(C)C2)C1c1cccc(Cl)c1Cl (racemic) [10b] | % | = | 62 |
| CCOC(=O)C1=C(N)N(c2ccccc2)C2=C(C(=O)CC(C)(C)C2)C1c1ccccc1OC (racemic) [6g] | % | < | 10 |

---

# Tested on: BT-549
# experimental_protocol: NCI-60 anticancer screening (SRB)
# Type: cell-based
# test_context: Homo sapiens; BT-549, breast cancer; one dose 10 μM; read-out: Growth Inhibition Percentage (GI %)
Overview of reported inhibition at 10 µM across a group of compounds:

| compound | inhibition at 10 µM |
| --- | --- |
| CCOC(=O)C1=C(N)N(c2ccccc2)C2=C(C(=O)CC(C)(C)C2)C1c1ccccc1OC (racemic) | < 10% |
| CCOC(=O)C1=C(N)N(c2ccccc2)C2=C(C(=O)CC(C)(C)C2)C1c1ccccc1Br (racemic) | < 10% |
| CCOC(=O)C1=C(N)N(c2ccccc2)C2=C(C(=O)CC(C)(C)C2)C1c1ccccc1Cl (racemic) | 22% |
| CCOC(=O)C1=C(N)N(c2ccccc2)C2=C(C(=O)CC(C)(C)C2)C1c1ccc(N2CCOCC2)cc1 (racemic) | < 10% |
| CCOC(=O)C1=C(N)N(c2ccc(C)cc2)C2=C(C(=O)CC(C)(C)C2)C1c1ccc([N+](=O)[O-])cc1 (racemic) | < 10% |
| CCOC(=O)C1=C(N)N(c2ccc(Cl)cc2)C2=C(C(=O)CC(C)(C)C2)C1c1ccccc1OC (racemic) | 20% |
| CCOC(=O)C1=C(N)N(c2ccccc2)C2=C(C(=O)CC(C)(C)C2)C1c1cccc(Cl)c1Cl (racemic) [10a] | 31% |
| CCOC(=O)C1=C(N)N(c2ccc(Cl)cc2)C2=C(C(=O)CC(C)(C)C2)C1c1ccc(Cl)cc1 (racemic) | 21% |
| CCOC(=O)C1=C(N)N(c2ccc(Cl)cc2)C2=C(C(=O)CC(C)(C)C2)C1c1ccc(F)cc1 (racemic) | 13% |
| CCOC(=O)C1=C(N)N(c2ccc(Cl)cc2)C2=C(C(=O)CC(C)(C)C2)C1c1cccc(Cl)c1Cl (racemic) [10b] | 31% |
| CCOC(=O)C1=C(N)N(c2ccc(C)cc2)C2=C(C(=O)CC(C)(C)C2)C1c1cccnc1 (racemic) [12e] | < 10% |
| CCOC(=O)C1=C(N)N(c2ccc(C)cc2)C2=C(C(=O)CC(C)(C)C2)C1c1ccccc1OC (racemic) | < 10% |
| CCOC(=O)C1=C(N)N(c2ccc(Cl)cc2)C2=C(C(=O)CC(C)(C)C2)C1c1ccc(Cl)cc1Cl (racemic) [10d] | 24% |
| CCOC(=O)C1=C(N)N(c2ccc(C)cc2)C2=C(C(=O)CC(C)(C)C2)C1c1ccc(OC)cc1 (racemic) | < 10% |
| CCOC(=O)C1=C(N)N(c2ccccc2)C2=C(C(=O)CC(C)(C)C2)C1c1ccc([N+](=O)[O-])cc1 (racemic) | < 10% |
| CCOC(=O)C1=C(N)N(c2ccc(Cl)cc2)C2=C(C(=O)CC(C)(C)C2)C1c1ccccc1Cl (racemic) | 40% |
| CCOC(=O)C1=C(N)N(c2ccccc2)C2=C(C(=O)CC(C)(C)C2)C1c1ccc(Cl)cc1 (racemic) | 57% |
